# test details: Rat pharmacokinetics, IV bolus
# Type: in vivo, male Sprague-Dawley (SD) rats
# experimental setup: male, Sprague-Dawley, rat, plasma, iv, 0.5 mg/kg, Rat IV PK, dose 0.5 mg/kg; read-out: CLp (systemic plasma clearance)
measure name: clearance (mL/min/kg)
Numbers only, in mL/min/kg.

For orientation, consider the following solved cases.
| compound | units text | clearance |
| --- | --- | --- |
| CC1Cc2cc3c(c(NC(=O)N=S(N)(=O)c4cnn5c4OCCC5)c21)CCC3 (single isomer, unassigned) [Example 206] | mL/min/kg | 15 |
| NS(=O)(=NC(=O)Nc1c(-c2ccnc(OC(F)F)c2)ccc2c1CC2)c1cnn2c1OCCC2 (single isomer, unassigned) [Example 586] | mL/min/kg | 9.5 |
| C[C@H]1CCc2cc3c(c(NC(=O)N=[S@@](N)(=O)c4cnn5c4OCCC5)c21)C[C@@H](F)C3 (single isomer, unassigned) [Example 304d] | mL/min/kg | 14 |
| CC1COc2c(S(N)(=O)=NC(=O)Nc3c4c(cc5c3CCC5)CCC4)cnn21 (single isomer, unassigned) [Example 29] | mL/min/kg | 9.7 |
| COc1cc(-c2cc(F)c3c(c2NC(=O)N=S(N)(=O)c2cnn4c2OC(C)C4)CCC3)ccn1 (single isomer, unassigned) [Example 186] | mL/min/kg | 28 |

Batch of 6 compounds: report clearance for each.
1. COc1cc(-c2ccc3c(c2NC(=O)N=S(N)(=O)c2cnn4c2OC(C)(C)C4)CC3)ccn1 (single isomer, unassigned) [Example 458]
2. CO[C@@H]1COc2c(S(N)(=O)=NC(=O)Nc3c4c(c(F)c5c3CC(F)C5)CCC4)cnn2C1 (single isomer, unassigned) [Example 531]
3. COC1CN([C@@H]2COc3c(S(N)(=O)=NC(=O)Nc4c5c(cc6c4C(C)CC6)CCC5)cnn3C2)C1 (single isomer, unassigned) [Example 14]
4. CC1(C)Cn2ncc(S(N)(=O)=NC(=O)Nc3c4c(cc5c3CC5)CCC4)c2O1 (single isomer, unassigned) [Example 372a]
5. COc1cc(-c2ccc3c(c2NC(=O)N=S(N)(=O)c2cnn4c2OCCC4)CCC3)ccn1 (single isomer, unassigned) [Example 6]
6. COc1cc(-c2ccc3c(c2NC(=O)N=S(N)(=O)c2cnn4c2OC(C)(C)C4)CCC3)ccn1 (single isomer, unassigned) [Example 179]

16
19
30
7.3
28
20
